Each recorded value in this set is attributed to ChEMBL document CHEMBL1135174.

Each entry below lists one item and its recorded concentration at 0.25 h value.
- assay: Tested for plasma concentration in the after 0.25 hrs of intravenous administration (5 mg/kg) to male rats
- Format: ADME, organism-based
- condition context: rat

- Nc1c(O)nc2ccc(C(F)(F)F)cc2c1-c1cc(Cl)ccc1O: 802 ng/mL

We next turn to a different molecule, shown below.
Value lookup for concentration at 0.25 h; key = `O=S(=O)(Nc1c(O)nc2ccc(C(F)(F)F)cc2c1-c1cc(Cl)ccc1O)C(F)(F)F`
1230 ng/mL

---

- assay: Half-life in plasma after intravenous administration (4.7 mg/kg) to male rats
- Format: ADME, organism-based
- condition context: rat
assay endpoint: half-life (h)
All answers are understood in h, so give the number only.

Requested field: half-life. Item: `Nc1c(O)nc2ccc(C(F)(F)F)cc2c1-c1cc(Cl)ccc1O`
7.6
